PBM binding z-score for assorted sequences
- System: LXRa:RXRa (NR concentration 270 nM, RXRa partner concentration 90 nM)
- Test Name: PBM binding z-score (relative to random genomic background probes); higher = stronger binding; sequences stand for … in GC…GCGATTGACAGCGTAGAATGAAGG
Answer with the value's number alone.

Asked: Which value of PBM binding z-score has been reported for CGTCCAAGGTCATTGCTAGGTCAGTGAAAGCATT in the records?
Given back: 5.75

Asked: Repeat for the following sequence: GCAGACAGGTGAAACGCAGGTAACTAAGGGTGGC
Given back: 0.0308

Asked: Another sequence to check: TAGCCTAGGTCAGATCGGGCCAGCATACGCTATA
Given back: 0.982

Next:
Asked: Record request: PBM binding z-score value, item TCAGACAGGCGAAGGTAACTCAGGTACGCAGTCG
Given back: 1.16

Asked: Likewise for CCGAGTACGTTATGGGGCATTCAGGCAACGGTGA ?
Given back: -0.442

Asked: Field entry: CTAACTAGGTCAAGAGGTCAAAGTCCGCTTCCCG
Given back: 6.46

Asked: Another sequence to look at: AGCATGAGGTTATTAAGATCAGGGAATTGCGGTC
Given back: 1.5

Asked: AATACAGGGTCACTAGGGCAGAGTAGGTACGAAT , same question.
Given back: 5.17

Asked: Subsequent entry: CCTTGGAGGACAACAGGAGGTCAGAGCTGCCAGA
Given back: 2.19

Asked: Then this sequence: ATCGAAAGGTCGAAGGTGAGAATACCCACCCGAA
Given back: 3.81

Asked: Another sequence to look at: GGGACTGGGGCAAAGCAGGTTACCATAAGGTTGG
Given back: 0.705

Asked: What about GCTAGCAGGCTATTTGGGTCACTCAATGACGGGC ?
Given back: 0.137

Asked: Same read-out for CCTTACGGGTCACTGACAGGTTAAAGCATTTGGA ?
Given back: 4.59

Asked: Same question for CAAACTAGGTCAAGAGGTGAAAGTCCGCTTCCCG please.
Given back: 3.89

Asked: Try CAAACTATGTCACCGGAAGGTCAAAGTCCGCATG next.
Given back: 3.78

Asked: Now consider CAAACTAGGTCACAGAGGTAAAAGTCCGTGCGTA and answer again.
Given back: 3.37

Asked: Record: ATCCCTAGGTAAGACTCAGTTCAGTGAAGAACGC
Given back: 0.364

Asked: Now consider CAAACTAGGTCACGGTCAAAGTCGGTTTGTGCCA .
Given back: 4.31

Asked: Now try GCTAGCAGGCCATTTGGATCACTCAATGACGGGC .
Given back: -0.387

Asked: Then this sequence: TCTTGTAGATCAAAGGTTAAGAAAGCCGAAGCCT
Given back: 1.97

Asked: # iterate: TCTTGTTGATCAATAGAGGTTAAGAAAGTGCGCT
Given back: 3.17

Asked: Okay, and CTAACTAGGTCATCCAGGACAGTGAATACATTGA ?
Given back: 3.08

* * *

- Tested on: PPARa:RXRa (NR concentration 270 nM, RXRa partner concentration 90 nM)
- Test Name: PBM binding z-score (relative to random genomic background probes); higher = stronger binding; sequences stand for … in GC…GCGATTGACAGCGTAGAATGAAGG
Known PBM binding z-score of a selection of sequences
Give only the figure.

Asked: So what does the record say about PBM binding z-score for GCTCGAAGGACAAGGTCAGAGCTTTGTCCGTAGA ?
Given back: 2.56

Asked: // repeat for CCTAGTTGGTCAAGGTTACACACGCTATAGGTAC and report
Given back: 1.79

Asked: Same question, CGGCCAAGGTCAATGCTAGGTCAGTGAAAGCATT this time
Given back: 5.19

New cases:
Asked: Which PBM binding z-score is reported for this sequence? TCATATAGGTATAAGGTGAAAGTCGGTGTGGTAA
Given back: 3.14

Asked: One more sequence: ATCGAATGGTCGACGAGGTGAGTATACACCGTTT
Given back: -0.212

Asked: Also TCATATAGGTAAATGCTGGGTGAAAGTCCGATCT , if possible.
Given back: 1.38

* * *

- System: RXRa homodimer (NR concentration 180 nM)
- Test Name: PBM binding z-score (relative to random genomic background probes); higher = stronger binding; sequences stand for … in GC…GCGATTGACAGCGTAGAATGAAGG
List of PBM binding z-score values.
Give the value as a plain number.

These solved cases illustrate the format of a correct answer.
Asked: Field request: PBM binding z-score | item: AATACAGGGTCTCTAGGCCAGAGTAGGTACGAAT
Given back: -0.15

Asked: Then CCTTACGGGTCATGGTTATAGCACGGGTGGTACG ?
Given back: 4.81

More entries:
Asked: I am curious: what PBM binding z-score value has been reported for ATCTCTAGGTAAGACTCAGTTCAGTGATGAACGC ?
Given back: 0.315

Asked: Subsequent entry: TCTATTAGTTGAAGGGCAACCCACGAGTCCGTTT
Given back: 0.809

Asked: Please do the same for GGAACGAGGGCATTCGCGTTGATAGCATGGCGAT as well.
Given back: 0.746

Asked: Queued: ACTCGGAGGACAAAGGTCAGAGCGACGCCAGTGA
Given back: 5.37

Asked: Do the same for AATCAAAGTTCACTAGGTAACGTAAGATTCAGCT please
Given back: 3.38

* * *

- Tested on: RARg homodimer (NR concentration 270 nM)
- Test Name: PBM binding z-score (relative to random genomic background probes); higher = stronger binding; sequences stand for … in GC…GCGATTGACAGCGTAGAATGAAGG
Entries annotated with measured PBM binding z-score
Write the number on its own, no unit after it.

Asked: Form field: reported PBM binding z-score of TGAATGAGGTTGAAGATCAGGGAACGTGGCGTCG
Given back: 0.179

Asked: What would you report for ATATGTAGGTTAGCTGGGGTCATTAAGACTAGGC ?
Given back: 3.03

Asked: Same lookup for TAGCCTAGGTCATGCGGGCTAGTATAGTGTCGGC , please.
Given back: 3.75

Asked: // next record CGTCCAAGGCCAATGCTAGGTCAGTGAAAGCATT
Given back: 1.94

Asked: Subsequent entry: GCAGACAGGTGAAACGCAGGTAACTCCGGGTGGC
Given back: -0.185

Okay, next one:
Asked: Value lookup for PBM binding z-score; key = CCTATTAGTTGACCATATGGGCAACCGAAGCTCG
Given back: 0.481

* * *

- System: RXRa homodimer (NR concentration 180 nM)
- Test Name: PBM binding z-score (relative to random genomic background probes); higher = stronger binding; sequences stand for … in GC…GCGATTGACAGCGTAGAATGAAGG
// classify(record): look up PBM binding z-score in ranges LOW (below 0.6), MID (0.6 to below 3), HIGH (3 or more)

Field: example entries. Status: answers known.
Asked: Which PBM binding z-score band matches CGCCCAAGGTCAAGGTCAGTGAAAGAGACTCGAA ?
Given back: HIGH

Asked: And the next one, GGAACGAGGGCATTCGAGTTGATATCATGGCGAT ?
Given back: MID

Asked: Next entry: TAGCCTAGGTCATTGGGCCAGTAAAGTACGCATC
Given back: HIGH

Asked: Repeat for the following sequence: CCCACTGGGGCAGAAAGGTTACCATACCATCCGG
Given back: MID

Asked: Same question for AGAACGAGGGCACGCTGAGTTGATAACAGAGTAG please.
Given back: MID

Next:
Asked: Dear colleague, I would appreciate it if you could identify the bin for ATATGTAGGTTAAGGGTCATACAGGTTGGTTCGC and reply at your convenience.
Given back: HIGH

Asked: Follow-up item: CCTACTGGGCCACGAAAGGTCATTGTTTCAGTGA
Given back: HIGH

Asked: TCAGACAGGGGAAGGTAACTCAGGTACGCAGTCG ?
Given back: LOW

Asked: Now consider TCTGCTAAGTCAACGATGGTCAGCTAATCTGCTA and answer again.
Given back: LOW

Asked: Now this one: AGAACGAGGGCAATGTGTTGATAGCACGGGTGGC
Given back: MID

Asked: Would you mind doing ATACCAAGGTGATCGGGAGGTCGTTGATACTAAC as well?
Given back: MID

Asked: Thanks! And CCAGACAGGTGAGAAGGTAACTCGGCCTCGATTA ?
Given back: LOW

Asked: Please do the same for CCGACTGGGGCGAAGGTTACCATACTCAGTACGA as well.
Given back: MID

Asked: Then GTACCAAGGTGAATAGGTCGCTGATGAGTAGGCG ?
Given back: MID

Asked: Proceed to ATCTCTAGGTAACCAAGTTCACTGAATGCCGAAC
Given back: MID

Asked: Do the same for ATCTCTAGGTAGCCAAGTTCAGTGAATGCCGAAC please
Given back: LOW

Asked: Next entry: GTTAGTTGGTCAGTAAAAGGTCACACACCGGTCG
Given back: HIGH

Asked: For CGTCCAAGGTCAAGGTCAGTAAAAGAGACTCGAA then?
Given back: HIGH
